Molecular target: aromatase (cytochrome P450 aromatase) (Homo sapiens)
Construct: This supernatant was then subjected to an ultra-centrifugation stage (90 minutes, 150,000 g) to obtain the microsomal deposit; from tissue; host or cells: human placenta, microsomal fraction
Experiment: Aromatase inhibition in vitro, human placental microsomes, tritiated water release from 1β,2β-(H^3)-Androstenedione
Type: biochemical
Procedure: Inhibition dependent on the concentration (measurement of the IC50 =concentration of the inhibitor necessary to reduce the enzymatic activity by 50%). […] After vigorous stirring of the tubes, they were decanted and centrifuged at 4° C. for 10 minutes at a speed of 3000 r.p.m. […] After centrifuging, and for each tube, 100 microliters of supernatant was removed and counted in the presence of a scintillating liquid. […]
quantity kind: pIC50
The read-out pIC50 is expressed as -log10 of concentration in moles per litre.

Tested on aromatase (cytochrome P450 aromatase) (Homo sapiens): `CSCC[C@]12CCC(=O)C=C1CC[C@@H]1C2=CC[C@]2(C)C(=O)CC[C@@H]12` . Observed pIC50: 7.70

====

Target: aromatase (cytochrome P450 aromatase) (Homo sapiens, UniProt P11511)
Construct: This supernatant was then subjected to an ultra-centrifugation stage (90 minutes, 150,000 g) to obtain the microsomal deposit; from tissue; host or cells: human placenta, microsomal fraction
Sequence (P11511 1-503): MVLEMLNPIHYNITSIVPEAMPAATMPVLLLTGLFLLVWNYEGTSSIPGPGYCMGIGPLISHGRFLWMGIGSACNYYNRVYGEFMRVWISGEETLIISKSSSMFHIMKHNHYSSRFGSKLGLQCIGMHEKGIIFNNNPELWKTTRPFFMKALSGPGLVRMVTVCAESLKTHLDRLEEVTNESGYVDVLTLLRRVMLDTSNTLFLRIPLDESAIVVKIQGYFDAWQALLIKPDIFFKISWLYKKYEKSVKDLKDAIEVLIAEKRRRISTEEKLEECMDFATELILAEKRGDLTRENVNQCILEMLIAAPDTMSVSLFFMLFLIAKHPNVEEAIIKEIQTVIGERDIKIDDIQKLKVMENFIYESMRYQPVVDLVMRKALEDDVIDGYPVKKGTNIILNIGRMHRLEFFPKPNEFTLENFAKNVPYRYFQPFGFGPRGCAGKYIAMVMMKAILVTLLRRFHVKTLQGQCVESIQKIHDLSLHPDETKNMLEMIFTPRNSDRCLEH
Assay: Aromatase inhibition in vitro, human placental microsomes, tritiated water release from 1β,2β-(H^3)-Androstenedione
Assay type: biochemical
Conditions: human placental microsomes; Androstenedione 500 nM; 37° C., 10 minutes; read-out: CI50 (concentration of inhibitor necessary to decrease the enzymatic activity by 50%)
Binary label based on IC50 with cut-off 200 nM: below gives class 1, not below gives class 0.

Use the examples below as a reference point.
Q: Lab log: compare recorded IC50 with 200 nM; is it strictly lower for CSCC[C@]12CC[C@H](O)C=C1CC[C@@H]1C2=CC[C@]2(C)[C@@H](O)CC[C@@H]12 [26 (3 beta OH)] ?
Ans: class 1

Q: Lab log: compare recorded IC50 with 200 nM; is it strictly lower for C[C@]12CC=C3[C@@H](CCC4=CC(=O)CC[C@@]43CCSCF)[C@@H]1CCC2=O [Example 22] ?
Ans: class 0

Q: Lab log: compare recorded IC50 with 200 nM; is it strictly lower for CSCC[C@]12CCC(=O)C=C1CC[C@@H]1C2=CC[C@]2(C)[C@@H](O)CC[C@@H]12 [Example 13] ?
Ans: class 1

***
Q: Lab log: compare recorded IC50 with 200 nM; is it strictly lower for CCSCC[C@]12CCC(=O)C=C1CC[C@@H]1C2=CC[C@]2(C)C(=O)CC[C@@H]12 [Example 2] ?
Ans: class 0

Q: Lab log: compare recorded IC50 with 200 nM; is it strictly lower for CSCC[C@]12CCC(=O)CC1CC[C@@H]1C2=CC[C@]2(C)C(=O)CC[C@@H]12 (stereo partly drawn) [Example 31] ?
Ans: class 1

Q: Lab log: compare recorded IC50 with 200 nM; is it strictly lower for C#CSCC[C@]12CCC(=O)C=C1CC[C@@H]1C2=CC[C@]2(C)C(=O)CC[C@@H]12 [Example 21] ?
Ans: class 0
